Test system: MDA-MB-436 cells
experimentalDetails: Resazurin-based cell viability assay, monotherapy drug screen
Design: species or system human
appliedConditions: MDA-MB-436; drug efficacy at highest tested dose (<0 cytotoxic, 0 cytostatic, >0 partial growth inhibition)
observedProperty: GRmax
Answers are plain numbers.

[[record]]
molecule = "CC[C@H](C)[C@H](NC(=O)[C@H]([C@@H](C)CC)N(C)C(C)=O)C(=O)N[C@H](C(=O)N[C@@H](CC(C)C)C(=O)[C@@]1(C)CO1)[C@@H](C)O"
targetortestsystem = "MDA-MB-436 cells"
observedproperty = "GRmax"
measured = 0.37

[[record]]
molecule = "CCCc1ccc(OCC(=O)N(Cc2nc(-c3cccnc3)no2)C(C)C)cc1"
targetortestsystem = "MDA-MB-436 cells"
observedproperty = "GRmax"
measured = 1.0

[[record]]
molecule = "N.N.[Cl][Pt][Cl] [Cisplatin]"
targetortestsystem = "MDA-MB-436 cells"
observedproperty = "GRmax"
measured = 0.17


Would you mind giving GRmax for every molecule in the list below?
1. CC(C)C[C@H](NC(=O)[C@H](CCc1ccccc1)NC(=O)CN1CCOCC1)C(=O)N[C@@H](Cc1ccccc1)C(=O)N[C@@H](CC(C)C)C(=O)[C@@]1(C)CO1
2. CC(C)C[C@H](NC(=O)[C@H](Cc1ccccc1)NC(=O)c1cnccn1)B(O)O

1: −0.89; 2: −0.76
